- experimental protocol: Binding of propranolol to human plasma proteins in the absence and presence of droloxifene or lasofoxifene (equilibrium dialysis, HPLC-MS)
- details: human, plasma
measured endpoint: fraction unbound
Keep the answer to the number alone.

**Query** # get_value(readout='fraction unbound', item= CC(C)NCC(O)COc1cccc2ccccc12 (stereo not shown) [propranolol, reference compound] )
**Result** 0.24

All values here come from patent EP1086692A2.
